Below, each entry is listed alongside its reported pIC50.
- Tested on: PANC-1
- assay-text: Cytotoxicity against human PANC1 cells assessed as decrease in cell proliferation after 72 hrs by MTT assay
- Format: functional, cell-based
- setup-conditions: PANC-1, 72 h
pIC50: −log10 of the molar value.
assay-metric: pIC50

| smiles-entry | result-operator | obs-value |
| --- | --- | --- |
| COc1cc(NC2=CC(=O)c3ncncc3C2=O)cc(OC)c1 | = | 5.14 |
| COc1ccc(NC2=CC(=O)c3ncncc3C2=O)cc1OC | = | 6.05 |
| COc1ccc(NC2=CC(=O)c3ncncc3C2=O)cc1 | = | 6.10 |
| Nc1ccc(C(=O)NCCC[P+](c2ccccc2)(c2ccccc2)c2ccccc2)cc1 | < | 4.52 |
| Nc1cccc(C(=O)NCCC[P+](c2ccccc2)(c2ccccc2)c2ccccc2)c1 | < | 4.52 |
| Nc1ccc(-c2ccc(NC3=CC(=O)c4ncncc4C3=O)cc2)cc1 | = | 5.43 |
| NS(=O)(=O)c1ccc(NC2=CC(=O)c3ncncc3C2=O)cc1 | < | 5.00 |
| O=C1C(Nc2ccc(OC(F)(F)F)cc2)=CC(=O)c2ncncc21 | = | 6.05 |
| O=C(NCCC[P+](c1ccccc1)(c1ccccc1)c1ccccc1)c1cccc(NC2=CC(=O)c3ncncc3C2=O)c1 | = | 4.84 |
| O=C1C=CC(=O)c2ncncc21 | = | 4.74 |
| COC(=O)c1ccc(NC2=CC(=O)c3ncncc3C2=O)cc1 | = | 5.96 |
| COc1cc(NC2=CC(=O)c3ncncc3C2=O)cc(OC)c1OC | = | 6.10 |
| O=C1C(Nc2ccc(-c3ccc(F)cc3)cc2)=CC(=O)c2ncncc21 | = | 5.49 |
| CCOC(=O)c1ccc(NC2=CC(=O)c3ncncc3C2=O)cc1 | = | 5.80 |
| O=C1C(NCc2ccc(F)cc2)=CC(=O)c2ncncc21 | = | 6.00 |
| COc1ccc(-c2ccc(NC3=CC(=O)c4ncncc4C3=O)cc2)cc1 | = | 5.64 |
| O=C1C(Nc2cccc(B(O)O)c2)=CC(=O)c2ncncc21 | = | 5.05 |
| CC(=O)c1cccc(NC2=CC(=O)c3ncncc3C2=O)c1 | = | 6.05 |
| O=C1C(Nc2ccc(Oc3ccccc3)cc2)=CC(=O)c2ncncc21 | = | 5.74 |
| COc1cccc(NC2=CC(=O)c3ncncc3C2=O)c1 | = | 6.22 |
| NC(=O)c1ccc(NC2=CC(=O)c3ncncc3C2=O)cc1 | = | 5.20 |
| O=C1C(Nc2ccc(CO)cc2)=CC(=O)c2ncncc21 | = | 6.00 |
| O=C1C(Nc2ccc(-c3ccccc3)cc2)=CC(=O)c2ncncc21 | = | 6.40 |
